Molecular target: T1, LHD202A
T1 construct: de novo designed protomer; BLI: one protomer of the pair was Avi-tagged, biotinylated and immobilised; also called LHD202 protomer A; source: E. coli BL21 LEMO, purified (Ni-NTA, SEC)
T1 sequence (main, as listed by the source): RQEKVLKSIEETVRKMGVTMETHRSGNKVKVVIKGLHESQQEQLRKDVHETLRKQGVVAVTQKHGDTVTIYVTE
Experiment: BLI; biotinylated protomer on streptavidin biosensors, designed partner in solution; 25 °C; 10 mM HEPES pH 7.4, 150 mM NaCl, 3 mM EDTA, 0.05% Surfactant P20, 1 mg/ml BSA; global kinetic fit, 1:1 model
Settings: both partners purified
READOUT: pKd
Recall that pKd is obtained by taking minus log10 of the concentration measured in molar.

Exam item: State its pKd: LHD202B (designed binder) SVEFHIVNISEEQRQRIEEYVRRISKKEGTEVRFEKRDGELTIEVKNLHEKRLQEILEYIERVNK
Marked response: 5.32
